ASSAYED_SYSTEM: T1, His-tagged CEACAM1 (human, UniProt P13688 35-428)
T1 construct: 45 kDa SPR analyte; also called CEACAM1-HIS; CEACAM1 analyte
T1 sequence: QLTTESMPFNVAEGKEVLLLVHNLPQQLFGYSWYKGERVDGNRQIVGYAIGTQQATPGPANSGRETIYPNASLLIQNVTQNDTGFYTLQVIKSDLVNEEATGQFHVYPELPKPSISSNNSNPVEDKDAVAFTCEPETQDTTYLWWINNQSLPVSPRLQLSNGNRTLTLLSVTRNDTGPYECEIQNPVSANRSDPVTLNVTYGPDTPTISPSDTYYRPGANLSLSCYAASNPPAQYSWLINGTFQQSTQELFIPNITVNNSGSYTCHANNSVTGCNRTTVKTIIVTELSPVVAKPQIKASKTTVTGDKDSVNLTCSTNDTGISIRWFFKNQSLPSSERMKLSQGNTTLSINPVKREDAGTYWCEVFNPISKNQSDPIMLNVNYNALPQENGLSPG
PROTOCOL_NOTES: SPR single-cycle, supernatant IgG captured
koff: recorded values
MEASUREMENT_KIND: koff (s⁻¹)

{"BINDER": "8H3_9B3/CP08F05 (antibody, IgG4, V domains shown, IgG4 (S241P), kappa) VH: EVQLLESGGGLVQPGGSLRLSCAASGFTFNAHAISWVRQAPGKGLEWVATISSGGTYTYYPDSVKGRFTISRDNSKNTLYLQMNSLKAEDTAMYYCARHDFDYFPYWFAHWGQGTLVTVSS VL: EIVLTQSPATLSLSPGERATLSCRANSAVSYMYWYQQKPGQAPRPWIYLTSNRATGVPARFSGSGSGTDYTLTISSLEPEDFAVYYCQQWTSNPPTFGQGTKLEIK", "UNIT_DESCRIPTOR": "s⁻¹", "READOUT_VALUE": 0.0063}
{"BINDER": "8H3_9C2 (CDR1)/CP08E05 (antibody, IgG4, V domains shown, IgG4 (S241P), kappa) VH: EVQLLESGGGLVQPGGSLRLSCAASEFTFSDHAMSWVRQAPGKGLEWVATISSGGTYTYYPDSVKGRFTISRDNSKNTLYLQMNSLKAEDTAMYYCARHDFDYFPYWFAHWGQGTLVTVSS VL: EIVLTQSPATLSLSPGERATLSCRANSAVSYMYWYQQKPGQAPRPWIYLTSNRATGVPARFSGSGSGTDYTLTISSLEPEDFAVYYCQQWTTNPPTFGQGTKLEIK", "UNIT_DESCRIPTOR": "s⁻¹", "READOUT_VALUE": 0.019}
{"BINDER": "9B3_9E5_8H3/Vκ8 S29A (antibody, IgG4, V domains shown, IgG4 (S241P), kappa) VH: EVQLLESGGGLVQPGGSLRLSCAASGFTFNAHAISWVRQAPGKGLEWVATISSGGTYTYYPDSVKGRFTISRDNSKNTLYLQMNSLKAEDTAMYYCARHGFDYFPYWFAHWGQGTLVTVSS VL: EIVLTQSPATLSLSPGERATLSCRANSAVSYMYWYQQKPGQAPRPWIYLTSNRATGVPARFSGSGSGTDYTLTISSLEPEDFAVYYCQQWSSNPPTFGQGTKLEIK", "UNIT_DESCRIPTOR": "s⁻¹", "READOUT_VALUE": 0.02}
{"BINDER": "8H3_9C2 (CDR1)/CP08F05 (antibody, IgG4, V domains shown, IgG4 (S241P), kappa) VH: EVQLLESGGGLVQPGGSLRLSCAASEFTFSDHAMSWVRQAPGKGLEWVATISSGGTYTYYPDSVKGRFTISRDNSKNTLYLQMNSLKAEDTAMYYCARHDFDYFPYWFAHWGQGTLVTVSS VL: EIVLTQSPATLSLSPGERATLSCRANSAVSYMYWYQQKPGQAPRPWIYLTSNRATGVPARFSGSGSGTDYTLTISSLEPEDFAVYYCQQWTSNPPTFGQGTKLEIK", "UNIT_DESCRIPTOR": "s⁻¹", "READOUT_VALUE": 0.017}
